Recorded zone of inhibition at 250 µg/mL for the following compounds
# Test system: Aspergillus niger
# Measurement Protocol: Antifungal activity against Aspergillus niger assessed as zone of inhibition at 250 ug/ml
# Type: functional
# Measurement Context: read-out: IZ

>  <Compound>
CC(=O)N1N=C(Cn2cc(-c3nn(-c4ccncc4)cc3-c3nnnn3-c3ccc(Cl)cc3)c3cc(Cl)ccc32)OC1(C)c1ccc(C(F)(F)F)cc1 (stereo unspecified)

>  <zone of inhibition at 250 µg/mL>
8 to 20 mm

$$$$
>  <Compound>
CC1(C)S[C@@H]2[C@H](NC(=O)[C@H](N)c3ccc(O)cc3)C(=O)N2[C@H]1C(=O)O

>  <zone of inhibition at 250 µg/mL>
21 to 27 mm

$$$$
>  <Compound>
COc1cc(-c2nnnn2-c2nc3ccccc3s2)cc(OC)c1OC

>  <zone of inhibition at 250 µg/mL>
16 to 26 mm

$$$$
>  <Compound>
CC(=O)N1N=C(Cn2cc(-c3nn(-c4ccncc4)cc3-c3nnnn3-c3ccc([N+](=O)[O-])cc3)c3cc(Cl)ccc32)OC1(C)c1ccc(C(F)(F)F)cc1 (stereo unspecified)

>  <zone of inhibition at 250 µg/mL>
8 to 20 mm

$$$$
>  <Compound>
Oc1ccc(-c2nnnn2-c2nc3ccccc3s2)cc1

>  <zone of inhibition at 250 µg/mL>
16 to 26 mm

$$$$
>  <Compound>
Oc1cccc(-c2nnnn2-c2nc3ccccc3s2)c1

>  <zone of inhibition at 250 µg/mL>
16 to 26 mm

$$$$
>  <Compound>
COc1ccc(-n2nnnc2-c2cn(-c3ccncc3)nc2-c2cn(CC3=NN(C(C)=O)C(C)(c4ccc(C(F)(F)F)cc4)O3)c3ccc(Cl)cc23)cc1 (stereo unspecified)

>  <zone of inhibition at 250 µg/mL>
8 to 20 mm

$$$$
>  <Compound>
CN(C)c1ccc(-c2nnnn2-c2nc3ccccc3s2)cc1

>  <zone of inhibition at 250 µg/mL>
16 to 26 mm

$$$$
>  <Compound>
Cc1ccc(-c2nnnn2-c2nc3ccccc3s2)cc1

>  <zone of inhibition at 250 µg/mL>
16 to 26 mm

$$$$
>  <Compound>
O=[N+]([O-])c1ccc(-c2nnnn2-c2nc3ccccc3s2)cc1

>  <zone of inhibition at 250 µg/mL>
16 to 26 mm

$$$$
>  <Compound>
O=[N+]([O-])c1cccc(-c2nnnn2-c2nc3ccccc3s2)c1

>  <zone of inhibition at 250 µg/mL>
16 to 26 mm

$$$$

---

# Test system: Streptococcus pneumoniae
# Measurement Protocol: Antimicrobial activity against Streptococcus pneumoniae
# Format: functional
Recorded MIC for the following compounds
Property Measured: MIC

>  <Compound>
Cc1nnc(SCC2=C(C(=O)O)N3C(=O)[C@@H](NC(=O)Cn4cnnn4)[C@H]3SC2)s1 [CEFAZOLIN]

>  <Measured Result>
0.063 to 8 µg/mL

$$$$
>  <Compound>
CO/N=C(\C(=O)N[C@@H]1C(=O)N2C(C(=O)O)=C(CSc3nc(=O)c(O)nn3C)CS[C@H]12)c1csc(N)n1 [CEFTRIAXONE]

>  <Measured Result>
0.063 to 8 µg/mL

$$$$
>  <Compound>
c1ccc(N2CCN(c3ncnc4c3Sc3nnnn3N4)CC2)cc1

>  <Measured Result>
51 to 410 µg/mL

$$$$
>  <Compound>
CC1(C)S[C@@H]2[C@H](NC(=O)Cc3ccccc3)C(=O)N2[C@H]1C(=O)O [PENICILLIN G]

>  <Measured Result>
0.063 to 8 µg/mL

$$$$
